# Test system: Escherichia coli (Ec)
# procedureSummary: Minimum inhibitory concentration, nutrient agar, Escherichia coli
# runParameters: 48 h, pH 6.8, read-out: Minimum inhibitory Concentration, Ec
For each record, write down the corresponding MIC.

May I ask what MIC has been recorded for CCCCCCn1c(=O)c2sc3nsnc3sc=2c1=O ?
> 500 µg/mL

Field entry: Cn1c(=O)c2sc3nsnc3sc=2c1=O
50 µg/mL

Field entry: O=c1c2sc3nsnc3sc=2c(=O)n1CCc1ccccc1
> 500 µg/mL

Field entry: CCCn1c(=O)c2sc3nsnc3sc=2c1=O
> 500 µg/mL

Field entry: CCn1c(=O)c2sc3nsnc3sc=2c1=O
50 µg/mL

Field entry: O=c1[nH]c(=O)c2sc3nsnc3sc1=2
100 µg/mL

Field entry: O=c1c2sc3nsnc3sc=2c(=O)n1-c1ccccc1
> 500 µg/mL
